target: human MAL (human) (UniProt P58753); test: P8 phage display panning on plate-immobilised MAL, after round 4, NGS
Recorded metric: NGS count (count)

{"Binder": "YLISYIFNELARAGFS", "NGS count (count)": 295}

I: TFLGHLYNALVQAGIH
II: YLKWGYPWFWDRLRFA
III: AFFWEQLRTVLGKPTM
QUERY: Order the records, beginning with the lowest NGS count and ending with the highest. Your answer should be the labels, listed in the requested order.
RESULT: II, III, I

Provenance of the data: patent EP4613859A1
